Test: HPLC capacity factor (k')
Format: ADME
Threshold-based label: Log k' under 0.2 gives Met, Log k' not under 0.2 gives Not met.

COMPOUND | GROUP LABEL
COC(=O)NC1=NC(c2ccc3c(c2)OCO3)CN1 (configuration not stated) | Met
COC(=O)NC1=NC(c2ccc(C(F)(F)F)cc2)CN1 (configuration not stated) | Not met
CCOc1ccccc1C1CN=C(NC(=O)OC)N1 (configuration not stated) | Not met
COC(=O)NC1=NC(c2ccccc2C)CN1 (configuration not stated) | Met
COC(=O)NC1=NC(c2cccc(OC)c2)CN1 (configuration not stated) | Met
COC(=O)NC1=NC(c2cccc(C)c2)CN1 (configuration not stated) | Not met
CC(C)COC(=O)NC1=NC(c2ccccc2)CN1 (configuration not stated) | Not met

###

Species: Mus musculus
Assay: Mouse behavior activity was determined; Dwk= Depressant Weak.
Assay type: functional, organism-based
METRIC NAME: Mouse behavior activity

COMPOUND | METRIC NAME | READOUT VALUE
CCCCCCOC(=O)NC1=NC(c2ccc(Cl)cc2)CN1 (centres undefined) | Mouse behavior activity | Depressant - weak
COC(=O)NC1=NC(c2cccc(Cl)c2)CN1 (centres undefined) | Mouse behavior activity | Depressant - weak
COC(=O)NC1=NC(c2ccc(C)cc2)CN1 (centres undefined) | Mouse behavior activity | Depressant - weak

###

Recorded measurements of LD50, one per entry
Test: Lethal dose in mouse, in groups of ten
Format: toxicity, organism-based
Details: in vivo
METRIC NAME: LD50 (mg/kg)

MOLECULE | METRIC NAME | MEASURE UNIT | READOUT VALUE
CCOC(=O)NC1=NC(c2ccc(F)cc2)CN1C (stereo not drawn) | LD50 | mg/kg | 200
COC(=O)NC1=NC(c2ccccc2C)CN1C (stereo not drawn) | LD50 | mg/kg | 200
COC(=O)NC1=NC(c2cccc(Cl)c2)CN1C (stereo not drawn) | LD50 | mg/kg | 300
CCOC(=O)NC1=NC(c2ccc(O)cc2)CN1C(C)C (stereo not drawn) | LD50 | mg/kg | 200
COC(=O)NC1=NC(c2ccccc2)CN1Cc1ccccc1 (stereo not drawn) | LD50 | mg/kg | 200
COC(=O)NC1=NC(c2ccc(O)cc2)CN1 (stereo not drawn) | LD50 | mg/kg | 700
CC(C)COC(=O)NC1=NC(c2ccccc2)CN1 (stereo not drawn) | LD50 | mg/kg | 700
COC(=O)NC1=NC(c2cc(Br)ccc2Br)CN1C (stereo not drawn) | LD50 | mg/kg | 500
COC(=O)NC1=NCC(c2cccc(Cl)c2)N1C (stereo not drawn) | LD50 | mg/kg | 200
CCOC(=O)NC1=NC(c2ccc(CO)cc2)CN1C (stereo not drawn) | LD50 | mg/kg | 500
COC(=O)NC1=NC(c2ccccc2Cl)CN1C (stereo not drawn) | LD50 | mg/kg | 238
COC(=O)NC1=NC(c2ccccc2-c2ccccc2)CN1 (stereo not drawn) | LD50 | mg/kg | 200
COC(=O)NC1=NC(c2cccc(F)c2)CN1 (stereo not drawn) | LD50 | mg/kg | 200

###

Experiment: HPLC capacity factor (k')
Assay type: ADME
METRIC NAME: Log k'

MOLECULE | READOUT VALUE
COC(=O)NC1=NC(c2ccc(C)cc2)CN1 (configuration not stated) | 0.3
CCOC(=O)NC1=NC(c2ccccc2)CN1C (configuration not stated) | 0.41
COC(=O)NC1=NC(c2cc(OC)cc(OC)c2)CN1 (configuration not stated) | 0.1
CC(C)OC(=O)NC1=NC(c2ccccc2Cl)CN1C (configuration not stated) | 1.08
COC(=O)NC1=NC(Cc2ccccc2)CN1 (configuration not stated) | 0.12
CC(C)COC(=O)NC1=NC(c2ccccc2)CN1C (configuration not stated) | 1.15
COC(=O)NC1=NC(c2ccc(C=O)cc2)CN1C (configuration not stated) | -0.53
CCOC(=O)NC1=NC(c2ccccc2Cl)CN1C (configuration not stated) | 0.82
COC(=O)NC1=NC(c2cccc(F)c2)CN1 (configuration not stated) | -0.1
CCOC(=O)NC1=NC(c2cccc(C)c2C)CN1C (configuration not stated) | 1.02
COC(=O)NC1=NC(c2cc(Br)ccc2Br)CN1C (configuration not stated) | 0.98
COC(=O)NC1=NC(c2ccccc2SC)CN1C (configuration not stated) | 0.63
COC(=O)NC1=NCC(c2cccc(Cl)c2)N1C (configuration not stated) | 0.86
COC(=O)NC1=NC(c2ccccc2Cl)CN1 (configuration not stated) | 0.29
COC(=O)NC1=NC(c2c(Cl)cccc2Cl)CN1 (configuration not stated) | 0.3
COC(=O)NC1=NC(c2cccc(OC)c2)CN1C (configuration not stated) | 0.18
COC(=O)NC1=NC(c2cccc(Cl)c2)CN1 (configuration not stated) | 0.4
COC(=O)NC1=NC(c2ccc(SC)cc2)CN1C (configuration not stated) | 0.61
COC(=O)NC1=NC2(CCc3ccccc32)CN1 (configuration not stated) | 0.3
CCOC(=O)NC1=NC(c2ccc(F)cc2)CN1C (configuration not stated) | 0.48
COC(=O)NC1=NC(c2ccccc2Cl)CN1C (configuration not stated) | 0.51
COC(=O)NC1=NC(c2cccc(C)c2)CN1C (configuration not stated) | 0.49
COC(=O)NC1=NC(c2cccc(Cl)c2Cl)CN1C (configuration not stated) | 0.91
COC(=O)NC1=NC(c2cccc(Cl)c2)CN1C (configuration not stated) | 0.53
COC(=O)NC1=NC(c2cc(F)ccc2F)CN1 (configuration not stated) | -0.08
CCCCCCc1ccc(C2CN=C(NC(=O)OC)N2)cc1 (configuration not stated) | 2.28
COC(=O)NC1=NC(c2ccc(Cl)cc2)CN1C (configuration not stated) | 0.54

###

Test: HPLC capacity factor (k')
Assay type: ADME
Binarize Log k' at 0.5; below is met, at or above is not met.

COMPOUND | GROUP LABEL
COC(=O)NC1=NC(c2ccccc2C)CN1C (stereo unspecified) | met
COC(=O)NC1=NCC2(CCc3ccccc32)N1C (stereo unspecified) | met
COC(=O)NC1=NC(c2ccc(O)c(O)c2)CN1 (stereo unspecified) | met
NC1=NC(c2ccccc2)CN1 (stereo unspecified) | met
COC(=O)NC1=NC(c2ccc(CO)cc2)CN1C (stereo unspecified) | met
COC(=O)NC1=NC(c2ccccc2)CN1Cc1ccccc1 (stereo unspecified) | not met
CCCOC(=O)NC1=NC(c2ccccc2F)CN1C (stereo unspecified) | not met
COC(=O)NC1=NC(c2ccccc2)CN1C (stereo unspecified) | met
COC(=O)NC1=NC(c2ccccc2[S+](C)[O-])CN1C (stereo unspecified) | met
CCOC(=O)NC1=NC(c2ccc(O)cc2)CN1C(C)C (stereo unspecified) | not met
CCOC(=O)NC1=NC(c2cc(C)ccc2C)CN1 (stereo unspecified) | not met
COC(=O)NC1=NC(c2cc(C)ccc2C)CN1 (stereo unspecified) | not met
COC(=O)NC1=NC(c2ccc(Cl)cc2)CN1 (stereo unspecified) | met
COC(=O)NC1=NC(c2ccc([S+](C)[O-])cc2)CN1C (stereo unspecified) | met
CCOC(=O)NC1=NC(c2cccc(Br)c2)CN1 (stereo unspecified) | not met
COC(=O)NC1=NC(c2ccccc2F)CN1C (stereo unspecified) | met
CCOC(=O)NC1=NC(c2cccc(Cl)c2)CN1C (stereo unspecified) | not met
CCOC(=O)NC1=NC(c2ccc(C(C)C)cc2)CN1 (stereo unspecified) | not met
COC(=O)NC1=NC(c2ccc(C(C)C)cc2)CN1 (stereo unspecified) | not met
COC(=O)NC1=NCC(c2c(Cl)cccc2Cl)N1C (stereo unspecified) | not met
CC(C)OC(=O)NC1=NC(c2cccc(Cl)c2)CN1 (stereo unspecified) | not met
CC(C)OC(=O)NC1=NC(c2ccccc2F)CN1C (stereo unspecified) | not met
COC(=O)NC1=NC(c2ccc(OC(C)=O)cc2)CN1C (stereo unspecified) | met
COC(=O)NC1=NC(c2ccccc2Br)CN1 (stereo unspecified) | met
CCOC(=O)NC1=NC(c2ccc(CO)cc2)CN1C (stereo unspecified) | met

###

Test: Lethal dose in mouse, in groups of ten
Type: toxicity, organism-based
Conditions: in vivo

COMPOUND | MEASUREMENT QUALIFIER | LD50 (mg/kg)
COC(=O)NC1=NC(c2ccc(C(C)C)cc2)CN1 (configuration not stated) | = | 500
COC(=O)NC1=NC(c2ccc(C=O)cc2)CN1C (configuration not stated) | > | 300
COC(=O)NC1=NC(c2cccc(C)c2)CN1 (configuration not stated) | = | 500
COC(=O)NC1=NC2(CCc3ccccc32)CN1 (configuration not stated) | = | 700
COC(=O)NC1=NC(c2ccc([S+](C)[O-])cc2)CN1C (configuration not stated) | > | 1000
COC(=O)NC1=NC(c2ccccc2F)CN1 (configuration not stated) | = | 255
NC1=NC(c2c(Cl)cccc2Cl)CN1 (configuration not stated) | = | 70
